# reported ΔTm; entries follow
subject.of.test: Fibroblast growth factor receptor 2 (Homo sapiens)
condition.set: Compound concentration 20.0 uM
Description: Thermal Shift Assay. Domain: start/stop: T457-E768
Return type: number; implicit unit °C.

Before answering, review these 4 worked examples.
QUERY: Recorded ΔTm for O=C1C(P(=O)(O)O)CC(O)N1O (stereo not given) , please?
RESULT: -0.05

QUERY: Recorded ΔTm for O=C(C=Cc1ccc(O)cc1)c1ccc(O)cc1O , please?
RESULT: 1.26

QUERY: Recorded ΔTm for Nc1ncnc2c1c(I)cn2[C@@H]1O[C@H](CO)[C@@H](O)[C@H]1O , please?
RESULT: 2.17

QUERY: Recorded ΔTm for Cc1nc2ccccn2c1C(=O)CN1CCN(c2ccc(F)cn2)CC1 , please?
RESULT: -0.08

---
QUERY: Recorded ΔTm for CS(=O)(=O)N1CCN(C(=O)c2cnc3ccc(F)cc3c2-c2ccc(C3(C#N)CC3)cc2)CC1 , please?
RESULT: 0.1

QUERY: Recorded ΔTm for COc1cc2c(cc1-c1c(C)noc1C)[nH]c1nc(C)nc(Nc3cc(C4CC4)nn3C)c12 , please?
RESULT: -0.94
